- Test system: HCV replicon
- Run Description: HCV replicon FRET / luciferase assay
- Assay type: cell-based
- Protocol Conditions: Hepatitis C virus
Quick reference: EC50 of the listed items.

CCCS(=O)(=O)NC(=O)c1ccc2c(C3CCCCC3)c3n(c2c1)CC1(C(=O)N2C4CCC2CN(C)C4)CC1c1cc(OC)ccc1-3 (stereo not shown) | 1 to 500 nM
COc1ccc2c(c1)C1CC1(C(=O)N1C3CCC1CN(C)C3)Cn1c-2c(C2CCCCC2)c2ccc(C(=O)NS(=O)(=O)CC(C)C)cc21 (stereo not shown) | 1 to 500 nM
COc1ccc2c(c1)C1CC1(C(=O)N1C3CCC1CN(C)C3)Cn1c-2c(C2CCCCC2)c2ccc(C(=O)NS(=O)(=O)C(F)(F)F)cc21 (stereo not shown) | 1 to 500 nM

For the next question, use this molecule.
// fetch EC50 given entry COc1ccc2c(c1)C1CC1(C(=O)N1C3CCC1CN(C)C3)Cn1c-2c(C2CCCCC2)c2ccc(C(=O)NS(=O)(=O)C(C)C)cc21 (stereo not shown) 1 to 500 nM

====

- System: HCV replicon
- Run Description: HCV replicon FRET / luciferase assay
- Assay type: cell-based
- Protocol Conditions: Hepatitis C virus
Value Type: EC50

// below: answered compounds
COc1ccc2c(c1)C1CC1(C(=O)N1C3CCC1CN(C)C3)Cn1c-2c(C2CCCCC2)c2ccc(C(=O)NS(=O)(=O)CCC(F)(F)F)cc21 (stereo not drawn) | 1 to 500 nM
COc1ccc2c(c1)[C@H]1C[C@@]1(C(=O)N1C3CCC1CN(C)C3)Cn1c-2c(C2CCCCC2)c2ccc(C(=O)NS(=O)(=O)C(C)C)cc21 | 1 to 500 nM

// fetch EC50 given entry CCCCS(=O)(=O)NC(=O)c1ccc2c(C3CCCCC3)c3n(c2c1)CC1(C(=O)N2C4CCC2CN(C)C4)CC1c1cc(OC)ccc1-3 (stereo not drawn) 1 to 500 nM

====

- System: HCV replicon
- Run Description: HCV replicon FRET / luciferase assay
- Assay type: cell-based
- Protocol Conditions: Hepatitis C virus
pEC50: −log10 of the molar value.
Quick reference: pEC50 of the listed items.

// below: answered molecules
COc1ccc2c(c1)[C@@H]1C[C@]1(C(=O)N1C3CCC1CN(C)C3)Cn1c-2c(C2CCCCC2)c2ccc(C(=O)NS(=O)(=O)CC(C)C)cc21 | 6.30 to 9.00
COc1ccc2c(c1)C1CC1(C(=O)N1C3CCC1CN(C)C3)Cn1c-2c(C2CCCCC2)c2ccc(C(=O)NS(=O)(=O)C3CCC3)cc21 (stereo not drawn) [drawing 51] | 6.30 to 9.00

For the next question, use this molecule.
// fetch pEC50 given entry COc1ccc2c(c1)C1CC1(C(=O)N1C3CCC1CN(C)C3)Cn1c-2c(C2CCCCC2)c2ccc(C(=O)NS(=O)(=O)CC(F)F)cc21 (stereo not drawn) 6.30 to 9.00

====

- Tested on: HCV replicon
- Run Description: HCV replicon FRET / luciferase assay
- Type: cell-based
- Protocol Conditions: Hepatitis C virus
Value Type: EC50

// below: answered molecules
COc1ccc2c(c1)C1CC1(C(=O)N1C3CCC1CN(C)C3)Cn1c-2c(C2CCCCC2)c2ccc(C(=O)NS(=O)(=O)C3CCCCC3)cc21 (stereo not shown) | 1 to 500 nM
CCN(CC)C(=O)N1CC2CCC(C1)N2C(=O)C12CC1c1cc(OC)ccc1-c1c(C3CCCCC3)c3ccc(C(=O)NS(=O)(=O)N4CCN(C)CC4)cc3n1C2 (stereo not shown) | 1 to 500 nM

// fetch EC50 given entry CN1CC2CCC(C1)N2C(=O)C12CC1c1ccccc1-c1c(C3CCCCC3)c3ccc(C(=O)NS(=O)(=O)N(C)C)cc3n1C2 (stereo not shown) 1 to 500 nM

// fetch EC50 given entry COc1ccc2c(c1)C1CC1(C(=O)N1C3CCC1CN(C)C3)Cn1c-2c(C2CCCCC2)c2ccc(C(=O)NS(=O)(=O)CC(F)(F)F)cc21 (stereo not shown) 1 to 500 nM

// fetch EC50 given entry COc1ccc2c(c1)C1CC1(C(=O)N1C3CCC1CN(C)C3)Cn1c-2c(C2CCCCC2)c2ccc(C(=O)NS(=O)(=O)C(C)(C)C)cc21 (stereo not shown) 1 to 500 nM

// fetch EC50 given entry CCC(C)S(=O)(=O)NC(=O)c1ccc2c(C3CCCCC3)c3n(c2c1)CC1(C(=O)N2C4CCC2CN(C)C4)CC1c1cc(OC)ccc1-3 (stereo not shown) [drawing 45] 1 to 500 nM

// fetch EC50 given entry COc1ccc2c(c1)C1CC1(C(=O)N1C3CCC1CN(C)C3)Cn1c-2c(C2CCCCC2)c2ccc(C(=O)NS(=O)(=O)C3CCCC3)cc21 (stereo not shown) 1 to 500 nM

====

- Test system: HCV replicon
- Run Description: HCV replicon FRET / luciferase assay
- Format: cell-based
- Protocol Conditions: Hepatitis C virus
pEC50: −log10 of the molar value.
Value Type: pEC50

// below: answered compounds
CCC(CC)S(=O)(=O)NC(=O)c1ccc2c(C3CCCCC3)c3n(c2c1)CC1(C(=O)N2C4CCC2CN(C)C4)CC1c1cc(OC)ccc1-3 (stereo not drawn) | < 6.96
CCN(CC)C(=O)N1CC2CCC(C1)N2C(=O)C12CC1c1cc(OC)ccc1-c1c(C3CCCCC3)c3ccc(C(=O)NS(=O)(=O)C4CC4)cc3n1C2 (stereo not drawn) | 6.30 to 9.00

For the next question, use this compound.
// fetch pEC50 given entry CC(C)S(=O)(=O)NC(=O)c1ccc2c(C3CCCCC3)c3n(c2c1)CC1(C(=O)N2C4CCC2CN(C)C4)CC1c1ccccc1-3 (stereo not drawn) 6.30 to 9.00
